test: PET hydrolysis product formed (TPA+MHET+BHET, UV-Vis) per mg enzyme (mmol/mg enzyme); higher = more PET depolymerisation activity; extreme values may be limits of the assay; conditions: PET substrate: cryPow; 60 °C; pH 8.5; 2 h
Assign class by PET hydrolysis product formed: not lower than 0.03 means T; lower than 0.03 means F.

Item Sequence	Assigned Category
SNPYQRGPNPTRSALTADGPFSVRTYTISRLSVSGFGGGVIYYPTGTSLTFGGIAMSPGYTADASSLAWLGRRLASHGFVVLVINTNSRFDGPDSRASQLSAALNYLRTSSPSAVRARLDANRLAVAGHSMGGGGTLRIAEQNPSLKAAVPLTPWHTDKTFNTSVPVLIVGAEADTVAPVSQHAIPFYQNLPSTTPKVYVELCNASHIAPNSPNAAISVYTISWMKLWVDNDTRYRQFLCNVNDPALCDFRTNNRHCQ [LCC-ICCG RIP]	T
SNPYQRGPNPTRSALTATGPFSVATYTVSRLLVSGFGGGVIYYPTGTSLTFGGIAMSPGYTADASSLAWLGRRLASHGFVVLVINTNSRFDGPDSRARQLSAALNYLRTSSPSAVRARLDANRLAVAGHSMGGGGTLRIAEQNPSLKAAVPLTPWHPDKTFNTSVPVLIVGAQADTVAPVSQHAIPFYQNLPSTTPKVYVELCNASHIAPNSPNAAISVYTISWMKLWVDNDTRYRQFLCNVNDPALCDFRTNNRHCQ [LCC-ICCG I6M]	T
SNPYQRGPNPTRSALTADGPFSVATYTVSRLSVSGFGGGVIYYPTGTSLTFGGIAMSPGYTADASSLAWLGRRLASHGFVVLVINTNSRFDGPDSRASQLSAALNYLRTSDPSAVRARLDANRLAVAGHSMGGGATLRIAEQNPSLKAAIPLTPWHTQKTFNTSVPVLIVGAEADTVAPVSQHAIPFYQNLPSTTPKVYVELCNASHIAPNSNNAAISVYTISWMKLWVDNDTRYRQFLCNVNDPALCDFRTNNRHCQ [LCC-ICCG DAQI]	T
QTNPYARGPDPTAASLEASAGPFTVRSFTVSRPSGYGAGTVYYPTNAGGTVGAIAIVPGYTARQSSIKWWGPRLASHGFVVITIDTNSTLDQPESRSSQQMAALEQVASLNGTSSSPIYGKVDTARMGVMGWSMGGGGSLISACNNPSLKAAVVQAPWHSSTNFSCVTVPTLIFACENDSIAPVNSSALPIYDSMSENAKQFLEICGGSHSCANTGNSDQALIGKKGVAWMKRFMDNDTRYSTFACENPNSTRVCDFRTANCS [Z1-PETase]	T
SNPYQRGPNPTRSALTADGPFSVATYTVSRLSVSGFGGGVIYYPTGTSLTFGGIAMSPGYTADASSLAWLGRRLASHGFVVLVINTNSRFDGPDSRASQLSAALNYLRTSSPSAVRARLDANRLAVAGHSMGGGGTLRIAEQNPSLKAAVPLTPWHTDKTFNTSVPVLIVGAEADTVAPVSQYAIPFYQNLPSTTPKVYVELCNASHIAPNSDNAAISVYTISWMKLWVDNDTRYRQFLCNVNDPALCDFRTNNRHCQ [LCC-A2]	T
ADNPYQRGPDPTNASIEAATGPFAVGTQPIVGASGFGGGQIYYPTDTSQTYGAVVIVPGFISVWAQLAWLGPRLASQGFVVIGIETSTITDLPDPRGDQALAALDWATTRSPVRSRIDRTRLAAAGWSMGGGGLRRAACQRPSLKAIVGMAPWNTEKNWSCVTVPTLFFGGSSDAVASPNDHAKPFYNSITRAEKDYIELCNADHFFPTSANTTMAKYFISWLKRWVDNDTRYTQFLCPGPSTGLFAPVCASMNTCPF [CaPETaseM9]	T

input: Say whether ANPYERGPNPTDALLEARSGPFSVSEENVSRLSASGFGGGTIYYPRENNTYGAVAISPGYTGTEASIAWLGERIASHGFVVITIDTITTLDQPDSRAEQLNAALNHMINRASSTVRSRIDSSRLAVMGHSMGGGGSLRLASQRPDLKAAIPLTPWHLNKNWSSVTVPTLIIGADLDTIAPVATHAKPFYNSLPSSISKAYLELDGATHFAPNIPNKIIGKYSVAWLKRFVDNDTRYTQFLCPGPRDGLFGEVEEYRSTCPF [TfCut2] shows PET hydrolysis product formed of 0.03 or more.
output: F

input: Confirm if PET hydrolysis product formed reported for the sequence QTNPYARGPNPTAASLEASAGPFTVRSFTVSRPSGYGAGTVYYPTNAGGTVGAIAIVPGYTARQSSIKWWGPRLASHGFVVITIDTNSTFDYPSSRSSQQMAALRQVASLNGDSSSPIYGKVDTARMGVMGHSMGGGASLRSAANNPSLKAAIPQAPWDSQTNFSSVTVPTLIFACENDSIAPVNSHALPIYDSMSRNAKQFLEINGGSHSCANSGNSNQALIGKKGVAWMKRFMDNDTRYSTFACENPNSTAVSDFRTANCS [DuraPETase] is 0.03 or above.
output: T

input: Item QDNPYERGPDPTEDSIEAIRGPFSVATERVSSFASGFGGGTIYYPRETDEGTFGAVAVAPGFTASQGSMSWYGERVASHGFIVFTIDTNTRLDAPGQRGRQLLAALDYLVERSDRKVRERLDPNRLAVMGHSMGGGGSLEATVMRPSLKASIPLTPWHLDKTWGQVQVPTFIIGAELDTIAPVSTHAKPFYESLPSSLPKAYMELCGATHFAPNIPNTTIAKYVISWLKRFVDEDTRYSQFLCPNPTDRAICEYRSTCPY [Cut190*SS] with PET hydrolysis product formed of 0.03 or above?
output: F

input: Can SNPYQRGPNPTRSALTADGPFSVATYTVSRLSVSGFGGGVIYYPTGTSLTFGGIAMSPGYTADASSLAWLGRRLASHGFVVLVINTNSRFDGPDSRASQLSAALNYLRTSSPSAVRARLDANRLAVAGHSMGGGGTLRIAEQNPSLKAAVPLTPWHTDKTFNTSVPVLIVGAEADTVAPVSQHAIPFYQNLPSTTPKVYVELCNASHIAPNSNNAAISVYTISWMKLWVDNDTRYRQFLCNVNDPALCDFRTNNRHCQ [LCC-ICCG] be said to have PET hydrolysis product formed at or above 0.03?
output: T

input: Please check the record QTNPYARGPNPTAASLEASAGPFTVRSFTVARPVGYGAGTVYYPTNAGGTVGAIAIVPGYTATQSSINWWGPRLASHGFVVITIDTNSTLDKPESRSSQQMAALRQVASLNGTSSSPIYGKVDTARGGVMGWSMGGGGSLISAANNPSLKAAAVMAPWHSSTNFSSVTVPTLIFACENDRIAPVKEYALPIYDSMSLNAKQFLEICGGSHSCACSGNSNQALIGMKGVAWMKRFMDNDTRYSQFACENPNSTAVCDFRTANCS [HotPETase] and state if its PET hydrolysis product formed is at or above 0.03.
output: T
